Numbers sourced from patent US10577378B2.

System: MDA-MB-231 human breast cancer cells
Assay Protocol: Cell proliferation assay (CellTiter-Glo, 72 hours treatment)
Format: cell-based
Condition Summary: Homo sapiens; MDA-MB-231 cells, 72 hours at 37° C., CellTiter-Glo; read-out: MDA-MB-231 cell proliferation assay (IC50)
Quantity Measured: IC50

Please review the following examples before continuing.
CN(C)C(=O)[C@@]12C[C@@H]1[C@@]1(O)c3ncc(Cl)cc3O[C@@]1(c1ccc(C#N)cc1)[C@@H]2c1ccccc1 (racemic) [31F] ... > 1000 nM
CCN(CC)C[C@H]1[C@@H](O)[C@@]2(O)c3c(OC)cncc3O[C@@]2(c2ccc(C#N)cc2)[C@@H]1c1ccccc1 (single isomer, unassigned) [73F] ... < 100 nM
COc1cncc2c1[C@]1(O)[C@H](O)[C@H](CNC(C)(C)C)[C@@H](c3ccccc3)[C@]1(c1ccc(C#N)cc1)O2 (single isomer, unassigned) [290F] ... 100 to 1000 nM

Ask: Item CNC[C@H]1[C@@H](O)[C@@]2(O)c3c(cc(Cl)nc3OC)O[C@@]2(c2ccc(C#N)cc2)[C@@H]1c1ccccc1 (racemic) [224F] has what recorded IC50?
Reply: < 100 nM

Ask: Which measured IC50 value corresponds to N#Cc1ccc([C@@]23Oc4cc(Cl)cnc4[C@]2(O)[C@H](O)[C@H](S(=O)(=O)Cc2ccccc2)[C@H]3c2ccccc2)cc1 (racemic) [94F] ?
Reply: > 1000 nM

Ask: Quick one: IC50 for NC(=S)[C@H]1[C@@H](O)[C@@]2(O)c3ncc(Cl)cc3O[C@@]2(c2ccc(Br)cc2)[C@@H]1c1ccccc1 (racemic) [28F] ?
Reply: 100 to 1000 nM

---

This section presents compounds with their documented pIC50 values.
Test system: MDA-MB-231 human breast cancer cells
Assay Protocol: Cell proliferation assay (CellTiter-Glo, 72 hours treatment)
Assay type: cell-based
Condition Summary: Homo sapiens; MDA-MB-231 cells, 72 hours at 37° C., CellTiter-Glo; read-out: MDA-MB-231 cell proliferation assay (IC50)
pIC50: −log10 of the molar value.

Worked examples follow.
COc1nc(Cl)cc2c1[C@]1(O)[C@H](O)[C@H](CN(C)CC(F)F)[C@@H](c3ccccc3)[C@]1(c1ccc(C#N)cc1)O2 (racemic) [208Fb] ... 6.00 to 7.00
COc1cncc2c1[C@]1(O)[C@H](O)[C@H](CN3CCC(F)(F)CC3)[C@@H](c3ccccc3)[C@]1(c1ccc(C#N)cc1)O2 (single isomer, unassigned) [113F] ... 6.00 to 7.00
COc1cncc2c1[C@]1(O)[C@H](O)[C@H](CN(C)C3COC3)[C@@H](c3ccccc3)[C@]1(c1ccc(C#N)cc1)O2 (racemic) [238F] ... 6.00 to 7.00
CN(C)C(=O)[C@H]1[C@@H](O)[C@@]2(O)c3n[nH]cc3O[C@@]2(c2ccc(C#N)cc2)[C@@H]1c1ccccc1 (racemic) [100F] ... < 6.00
COc1nc(Cl)cc2c1[C@]1(O)[C@H](O)[C@H](CN3CCC34CC4(F)F)[C@@H](c3ccccc3)[C@]1(c1ccc(C#N)cc1)O2 (mixture of isomers) [222F] ... > 7.00

Ask: Name the recorded pIC50 for COC(=O)[C@@]12C[C@@H]1[C@@]1(O)c3ncc(Cl)cc3O[C@@]1(c1ccc(C#N)cc1)[C@@H]2c1ccccc1 (racemic) [25F] .
Reply: < 6.00

Ask: Param item = COc1nc(Cl)cc2c1[C@]1(O)[C@H](O)[C@H](C(=O)O)[C@@H](c3ccccc3)[C@]1(c1ccc(Br)cc1)O2 (racemic) [295F] ; retrieve measured pIC50.
Reply: > 7.00

Ask: So what does the record say about pIC50 for COc1cncc2c1[C@]1(O)[C@@H](CN3CC4(COC4)C3)[C@H](CO)[C@@H](c3ccccc3)[C@]1(c1ccc(Br)cc1)O2 (racemic) ?
Reply: > 7.00

Ask: Could you share which pIC50 value was measured for COc1cncc2c1[C@]1(O)[C@@H](CN3CCOCC3)[C@H](CO)[C@@H](c3ccccc3)[C@]1(c1ccc(C#N)cc1)O2 (racemic) [180F] ?
Reply: > 7.00

Ask: // query pIC50 value for entry COc1cncc2c1[C@]1(O)[C@H](O)[C@H](C(=O)N(C)CCF)[C@@H](c3ccccc3)[C@]1(c1ccc(Br)cc1)O2 (racemic) [247F]
Reply: > 7.00

Ask: Recorded pIC50 of CN(C)C(=O)[C@H]1[C@@H](O)[C@@]2(O)c3nn(C)c(C#N)c3O[C@@]2(c2ccc(C#N)cc2)[C@@H]1c1ccccc1 (racemic) [82F] , please.
Reply: < 6.00
